# Tested on: POLCO
# assay.name: Post-emergence herbicidal action against POLCO
# Type: in vivo, Polygonum convolvulus
# test.settings: application rate 80 g/ha, rated visually about 3 weeks after treatment
Each item that follows carries a reported Herbicidal action against [%] POLCO.
Provide only the numeric value, understood in %.

CCCS(=O)(=O)NC(=O)C1C=CC(NC(=O)C2(C(F)(F)F)CC(c3cc(F)cc(F)c3)=NO2)C1 (mixture of isomers)
90
CN(C)C(=O)C1=CCC(NC(=O)C2(C)CC(c3cccc(F)c3)=NO2)C1 (mixture of isomers)
80
COCCOC(=O)C1C=CC(NC(=O)C2(C(F)(F)F)CC(c3cccc(C#N)c3)=NO2)C1 (mixture of isomers)
80
Cc1cc(C)cc(C2=NOC(C(=O)NC3C=CC(C(=O)OCCCl)C3)(C(F)(F)F)C2)c1 (mixture of isomers)
80
C=CC1(C(=O)N[C@H]2C=C[C@@H](C(=O)OCC(F)(F)F)C2)CC(c2cc(F)cc(F)c2)=NO1 (stereo partly drawn)
100

Read the next record carefully.
Which Herbicidal action against [%] POLCO is listed for O=C(OCc1ccccc1)C1C=CC(NC(=O)C2(C(F)(F)F)CC(c3cc(F)cc(F)c3)=NO2)C1 (mixture of isomers) ?
90

* * *

Consider the following compounds and their measured Herbicidal action against [%] ECHCG readings.
# Test system: ECHCG
# assay.name: Post-emergence herbicidal action against ECHCG
# Type: in vivo, Echinochloa crus-galli
# test.settings: application rate 80 g/ha, rated visually after about 3 weeks
Express it in %; write the number only.

The cases that follow already have their Herbicidal action against [%] ECHCG on record.
C=CC1(C(=O)NC2C=CC(C(=O)O)C2)CC(c2cc(F)cc(F)c2)=NO1 (stereo not shown) [Example I-014]
90
CC1(C(=O)NC2C=CC(C(=O)OCCCl)C2)CC(c2cccc(C#N)c2)=NO1 (mixture of isomers)
80

Requested read-out: Herbicidal action against [%] ECHCG. Entry: CC(C)(C#N)NC(=O)C1C=CC(NC(=O)C2(C)CC(c3cc(F)cc(F)c3)=NO2)C1 (mixture of isomers)
90

Can you look up the measured Herbicidal action against [%] ECHCG of `COC(=O)[C@H]1C=C[C@H](NC(=O)[C@@]2(C(F)(F)F)CC(c3cc(F)cc(F)c3)=NO2)C1` for me?
90

Look up Herbicidal action against [%] ECHCG: CC1(C(=O)NC2C=CC(C(=O)O)C2)CC(c2cc(F)cc(C#N)c2)=NO1 (mixture of isomers)
90

Param item = CN(C)NC(=O)C1=CCC(NC(=O)C2(C)CC(c3cccc(F)c3)=NO2)C1 (mixture of isomers) ; retrieve measured Herbicidal action against [%] ECHCG.
80

If you can, please state the reported Herbicidal action against [%] ECHCG value of N#Cc1cccc(C2=NOC(C(=O)NC3C=CC(C(=O)OCCCl)C3)(C(F)(F)F)C2)c1 (mixture of isomers) .
90

* * *

# System: POLCO
# assay.name: Post-emergence herbicidal action against POLCO
# Format: in vivo, Polygonum convolvulus
# test.settings: application rate 80 g/ha, rated visually about 3 weeks after treatment
readout: Herbicidal action against [%] POLCO (%)
Write down the numeric answer in % and omit the unit.

Example results:
CC1(C(=O)N[C@H]2CC=C(C(=O)OCc3ccccc3)C2)CC(c2cc(F)cc(F)c2)=NO1 (stereo partly shown)
90
CCOC(=O)C1C=CC(NC(=O)C2(C(F)(F)F)CC(c3cc(F)cc(C#N)c3)=NO2)C1 (mixture of isomers)
90
CCOC(=O)C1C=CC(NC(=O)C2(C)CC(c3cccc(C#N)c3)=NO2)C1 (mixture of isomers)
80
C=CC1(C(=O)NC2C=CC(C(=O)O)C2)CC(c2cc(F)cc(F)c2)=NO1 (stereo not shown) [Example I-011]
80
COC(=O)[C@H]1C=C[C@@H](NC(=O)C2(C)CC(c3cccc(F)c3)=NO2)C1 (stereo partly shown)
80
CC(C)(C#N)NC(=O)C1C=CC(NC(=O)C2(C(F)(F)F)CC(c3cc(F)cc(F)c3)=NO2)C1 (mixture of isomers)
90

Let us examine a further case.
If you can, please state the reported Herbicidal action against [%] POLCO value of C=CC1(C(=O)N[C@H]2C=C[C@@H](C(=O)OCCOC)C2)CC(c2cc(F)cc(F)c2)=NO1 (stereo partly shown) .
100

* * *

# System: ECHCG
# assay.name: Post-emergence herbicidal action against ECHCG
# Type: in vivo, Echinochloa crus-galli
# test.settings: application rate 80 g/ha, rated visually after about 3 weeks
readout: Herbicidal action against [%] ECHCG (%)
Report the figure in % without appending any unit label.

Consider the reported Herbicidal action against [%] ECHCG for these compounds:
C=CC1(C(=O)NC2C=CC(C(=O)OC(C)C)C2)CC(c2cc(F)cc(F)c2)=NO1 (mixture of isomers)
80
CC(C)(C)OC(=O)C1C=CC(NC(=O)C2(C(F)(F)F)CC(c3cc(F)cc(F)c3)=NO2)C1 (mixture of isomers)
80
C=C[C@]1(C(=O)N[C@H]2C=C[C@H](C(=O)OC)C2)CC(c2cc(F)cc(F)c2)=NO1
90
CCOC(=O)C1C=CC(NC(=O)C2(C(F)(F)F)CC(c3cc(Cl)cc(Cl)c3)=NO2)C1 (mixture of isomers)
80

Observed Herbicidal action against [%] ECHCG on ECHCG for `CCOCCOC(=O)[C@@H]1C=C[C@H](NC(=O)[C@@]2(C)CC(c3cc(F)cc(F)c3)=NO2)C1` , please.
100

Param readout = Herbicidal action against [%] ECHCG; param system = ECHCG; param query = O=C(O)C1C=CC(NC(=O)C2(C3CC3)CC(c3cc(F)cc(F)c3)=NO2)C1 (centres unmarked) ; response: value
90

Recall the recorded Herbicidal action against [%] ECHCG for CC1(C(=O)N[C@H]2C=C[C@@H](C(=O)N3CCCO3)C2)CC(c2cc(F)cc(F)c2)=NO1 (some centres unmarked) with ECHCG and state it.
80

What reported Herbicidal action against [%] ECHCG corresponds to C=CC1(C(=O)N[C@H]2C=C[C@@H](C(=O)OCC(F)F)C2)CC(c2cc(F)cc(F)c2)=NO1 (some centres unmarked) on ECHCG?
100

Look up Herbicidal action against [%] ECHCG with ECHCG for this compound: COc1cc(OC)cc(C2=NOC(C(=O)NC3C=CC(C(=O)OCCCl)C3)(C(F)(F)F)C2)c1 (mixture of isomers)
90

Any idea what Herbicidal action against [%] ECHCG came out for CCONC(=O)[C@@H]1C=C[C@H](NC(=O)C2(C)CC(c3cccc(F)c3)=NO2)C1 (some centres unmarked) on ECHCG?
80

State its Herbicidal action against [%] ECHCG on ECHCG: C=CC1(C(=O)N[C@H]2C=C[C@@H](C(=O)OCCOC)C2)CC(c2cc(F)cc(F)c2)=NO1 (some centres unmarked)
100

Test system ECHCG; read-out Herbicidal action against [%] ECHCG; what value for C=CC1(C(=O)NC2C=CC(C(=O)N3CCCO3)C2)CC(c2cc(F)cc(F)c2)=NO1 (centres unmarked) [II-28] ?
90

Which measured Herbicidal action against [%] ECHCG belongs to COC(=O)C1C=CC(NC(=O)C2(C(F)(F)F)CC(c3cccc(Cl)c3)=NO2)C1 (mixture of isomers) , tested on ECHCG?
90

Value wanted: Herbicidal action against [%] ECHCG (ECHCG) of entry C=CC1(C(=O)N[C@H]2C=C[C@H](C(=O)N3CCCCO3)C2)CC(c2cc(F)cc(F)c2)=NO1 (some centres unmarked)
90

* * *

# Test system: ECHCG
# assay.name: Post-emergence herbicidal action against ECHCG
# Format: in vivo, Echinochloa crus-galli
# test.settings: application rate 80 g/ha, rated visually after about 3 weeks
readout: Herbicidal action against [%] ECHCG (%)
Field format: number, assumed %, no unit text.

Some compounds with known Herbicidal action against [%] ECHCG results, for comparison:
C=CC1(C(=O)NC2C=CC(C(=O)N3CCCCO3)C2)CC(c2cc(F)cc(F)c2)=NO1 (mixture of isomers)
90
CCOC(=O)[C@@H]1C=C[C@H](NC(=O)C2(C)CC(c3cccc(F)c3)=NO2)C1 (stereo partly shown)
80
O=C(OCC(F)(F)F)C1C=CC(NC(=O)C2(C(F)(F)F)CC(c3cc(Cl)cc(Cl)c3)=NO2)C1 (mixture of isomers)
80

Turning now to a further compound:
For the compound COCCOC(=O)C1C=CC(NC(=O)C2(C(F)(F)F)CC(c3cccc(C#N)c3)=NO2)C1 (mixture of isomers) , what Herbicidal action against [%] ECHCG is on record?
90

* * *

# Tested on: ABUTH
# assay.name: Post-emergence herbicidal action against ABUTH
# Assay type: in vivo, Abutilon theophrasti
# test.settings: application rate 80 g/ha, rated visually about 3 weeks after treatment
readout: Herbicidal action against [%] ABUTH (%)
# output: bare number, implied unit %

Example results:
Cc1cc(Cl)cc(C2=NOC(C(=O)N[C@H]3C=C[C@@H](C(=O)OCCCl)C3)(C(F)(F)F)C2)c1 (stereo partly shown)
80
N#Cc1cc(F)cc(C2=NOC(C(=O)NC3C=CC(C(=O)OCCCl)C3)(C(F)(F)F)C2)c1 (mixture of isomers)
90
C=CC1(C(=O)NC2C=CC(C(=O)N3CCCO3)C2)CC(c2cc(F)cc(F)c2)=NO1 (stereo not shown)
90

Then there is this molecule:
Give its Herbicidal action against [%] ABUTH value. Item: CCOC(=O)C1=CC[C@H](NC(=O)C2(C)CC(c3cc(F)cc(F)c3)=NO2)C1 (stereo partly shown)
80
